System: Quadruplex DNA
assayNotes: Stabilization of Hairpin G4 DNA (unknown origin) by FRET assay
Assay type: nucleic-acid assay
Active and inactive are the calls of the source. No cut-off for these calls is given here.
Lab note: assign the record to one of active, inactive

Would you please look over these solved cases?
[
  {
    "smilesData": "Cl.Cl.NCCNc1c2c(c(NCCN)c3n[se]nc13)C(=O)c1ccccc1C2=O",
    "labelClass": "active"
  },
  {
    "smilesData": "NCCNc1c2c(c(NCCN)c3nsnc13)C(=O)c1ccccc1C2=O",
    "labelClass": "active"
  },
  {
    "smilesData": "Cl.Cl.N=C(N)NCCNc1c2c(c(NCCNC(=N)N)c3[nH]nnc13)C(=O)c1ccccc1C2=O",
    "labelClass": "active"
  },
  {
    "smilesData": "N=C(N)NCCNc1c2c(c(NCCNC(=N)N)c3nsnc13)C(=O)c1ccccc1C2=O",
    "labelClass": "active"
  },
  {
    "smilesData": "Cl.Cl.NCCNc1c2c(c(NCCN)c3[nH]nnc13)C(=O)c1ccccc1C2=O",
    "labelClass": "inactive"
  }
]

Let us examine a further case.
-- ask Lab log entry: "N=C(N)NCCNc1c2c(c(NCCNC(=N)N)c3n[se]nc13)C(=O)c1ccccc1C2=O" — outcome as called in the assay?
-- reply active

* * *

Tested on: Quadruplex DNA
assayNotes: Stabilization of c-MYC G4 DNA (unknown origin) by FRET assay
Format: nucleic-acid assay
The source made the active and inactive calls. No cut-off for these calls is given here.
Pick one and only one: active, inactive

Field: example entries. Status: answers known.
[
  {
    "smilesData": "N=C(N)NCCNc1c2c(c(NCCNC(=N)N)c3n[se]nc13)C(=O)c1ccccc1C2=O",
    "testedOn": "Quadruplex DNA",
    "labelClass": "active"
  },
  {
    "smilesData": "N=C(N)NCCNc1c2c(c(NCCNC(=N)N)c3nsnc13)C(=O)c1ccccc1C2=O",
    "testedOn": "Quadruplex DNA",
    "labelClass": "active"
  }
]

Attention now turns to another entry.
-- ask Please let me know the test result on file for "Cl.Cl.NCCNc1c2c(c(NCCN)c3[nH]nnc13)C(=O)c1ccccc1C2=O" .
-- reply inactive
